Biological target: FLuc-C-HiBiT (firefly luciferase) (Photinus pyralis, UniProt P08659, form not given/L550V)
Sequence (P08659 2-550 L550V, form open): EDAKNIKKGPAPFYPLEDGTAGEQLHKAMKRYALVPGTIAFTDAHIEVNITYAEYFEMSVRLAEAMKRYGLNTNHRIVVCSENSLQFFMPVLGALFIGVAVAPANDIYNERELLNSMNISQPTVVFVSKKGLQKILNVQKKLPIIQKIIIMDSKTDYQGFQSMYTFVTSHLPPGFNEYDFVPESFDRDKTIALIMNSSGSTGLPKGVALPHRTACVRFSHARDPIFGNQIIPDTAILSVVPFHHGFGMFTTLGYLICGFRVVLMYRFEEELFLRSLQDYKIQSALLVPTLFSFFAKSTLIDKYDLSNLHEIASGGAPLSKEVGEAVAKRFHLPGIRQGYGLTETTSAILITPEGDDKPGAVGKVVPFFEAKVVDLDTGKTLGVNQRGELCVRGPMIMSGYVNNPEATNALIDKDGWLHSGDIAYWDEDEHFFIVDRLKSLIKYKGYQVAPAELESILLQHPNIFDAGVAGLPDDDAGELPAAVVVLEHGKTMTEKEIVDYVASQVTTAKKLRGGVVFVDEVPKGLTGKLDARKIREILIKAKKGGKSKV
Assay: SDR assay, FLuc-C-HiBiT
Conditions: 10 nM FLuc-C-HiBiT; normalized activity; Log [Compound], M -4.48
I'd appreciate it if you could supply SDR No ATP values for the items below.
One number for each entry.

Example entries and their recorded answers appear below.
CC(CNC(=O)C1CCN(C(=O)c2ncn3c2COC(c2ccccc2)C3)CC1)c1ccccc1 (stereo not drawn)	10.5
CNC(=O)c1cccc2c1CCN2C(=O)Nc1ccc(C)cc1	78.6

Noted for `Fc1ccc(-c2cn3cc(Cc4ccccc4)sc3n2)cc1` : its SDR No ATP reads 56.3

###

I'd be grateful if you could share measured SDR for these entries.
Target: FLuc-C-NLuc (firefly luciferase) (Photinus pyralis, UniProt P08659, form not given/L550V)
Sequence (P08659 2-550 L550V, form open): as the sequence (P08659 2-550 L550V, form open) above
Experiment: SDR assay, FLuc-C-NLuc
Conditions: Log[Compound], M -6.87; absence of ATP
Answers are plain numbers.

CC(NC(=O)C1CCN(C(=O)c2ncn3c2COC(c2ccc(F)cc2)C3)CC1)c1ccc(F)cc1 (centres unmarked) [NCGC00449825]	3.25
COc1ccc(NC(=O)C2CCN(C(=O)c3ncn4c3COC(c3ccccc3)C4)CC2)cc1Cl (centres unmarked) [NCGC00449919]	11.53
O=C(Nc1cccc(F)c1)C1CCN(C(=O)c2ncn3c2COC(c2ccccc2)C3)CC1 (centres unmarked) [NCGC00449914]	9.23
CC(CNC(=O)C1CCN(C(=O)c2ncn3c2COC(c2ccccc2)C3)CC1)c1ccccc1 (centres unmarked) [compound 00449795]	10.66

Memo: CC1CCC(NC(=O)C2CCN(C(=O)c3ncn4c3COC(c3ccc(Cl)cc3)C4)CC2)CC1 (centres unmarked) [NCGC00449845] , reported SDR: 2.37

###

Biological target: P. pyralis FLuc (Photinus pyralis, UniProt P08659)
Sequence (P08659 whole entry): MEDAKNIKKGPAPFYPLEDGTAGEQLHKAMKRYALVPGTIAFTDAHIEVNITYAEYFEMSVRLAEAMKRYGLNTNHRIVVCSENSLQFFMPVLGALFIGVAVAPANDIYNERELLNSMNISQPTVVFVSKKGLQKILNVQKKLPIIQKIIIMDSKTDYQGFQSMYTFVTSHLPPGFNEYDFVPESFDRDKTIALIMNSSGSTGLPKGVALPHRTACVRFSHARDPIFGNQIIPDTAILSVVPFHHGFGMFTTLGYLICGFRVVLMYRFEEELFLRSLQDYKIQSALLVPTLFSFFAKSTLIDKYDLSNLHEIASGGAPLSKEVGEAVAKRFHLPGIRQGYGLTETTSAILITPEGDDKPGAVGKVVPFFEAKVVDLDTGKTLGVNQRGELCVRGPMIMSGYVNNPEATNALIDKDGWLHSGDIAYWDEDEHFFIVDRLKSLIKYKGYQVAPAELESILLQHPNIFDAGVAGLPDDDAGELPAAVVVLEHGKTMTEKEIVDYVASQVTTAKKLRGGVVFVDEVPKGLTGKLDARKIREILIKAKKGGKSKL
Assay: FLuc enzymatic luminescence assay, P. pyralis FLuc
Assay type: biochemical
Conditions: FLuc enzymatic assay
MEASURED PROPERTY: pIC50 or pSDR50 FLuc E
One number for each entry.

O=C(NCCc1ccccc1)C1CCN(C(=O)c2ncn3c2COC(c2ccccc2)C3)CC1 (centres unmarked) [NCGC00449794-01]	5.66
CC1CCC(NC(=O)C2CCN(C(=O)c3ncn4c3COC(c3ccccc3)C4)CC2)CC1 (centres unmarked) [NCGC00449768-01]	5.71
O=C(NCc1cc(F)cc(F)c1)C1CCN(C(=O)c2ncn3c2COC(c2ccc(F)cc2)C3)CC1 (centres unmarked) [NCGC00449820-01]	4.96
O=C(NC1CC1)C1CCN(C(=O)c2ncn3c2COC(c2ccc(F)cc2)C3)CC1 (centres unmarked) [NCGC00449806-01]	4.91

List the reported pIC50 or pSDR50 FLuc E of each molecule below.
1. O=C(NCc1ccccc1)C1CCN(C(=O)c2ncn3c2COC(c2ccc(F)cc2)C3)CC1 (centres unmarked) [NCGC00449813-01]
2. O=C(NCc1cccc(F)c1)C1CCN(C(=O)c2ncn3c2COC(c2ccccc2)C3)CC1 (centres unmarked) [NCGC00449803-01]

1: 4.91; 2: 5.11

Each of the following entries comes with a recorded value; kindly state pIC50 or pSDR50 FLuc E for each.
1. O=C(NCc1cccc(Cl)c1)C1CCN(C(=O)c2ncn3c2COC(c2ccccc2)C3)CC1 (centres unmarked) [NCGC00449787-01]
2. O=C(NCc1ccccc1F)C1CCN(C(=O)c2ncn3c2COC(c2ccccc2)C3)CC1 (centres unmarked) [NCGC00449783-01]

4.96
5.41

Data origin: paper PMC12064818
